assay: Pharmacokinetic measurements of H3B-6527 capsules in patients (trial NCT02834780), plasma LC-MS/MS; format: in vivo, human; details: human, plasma, oral, 1400 mg, 1400 mg QD, fed, Day 8; Table 6, actual times after QC; read-out: AUC, geometric mean (CV%)
measure: AUC (ng·h/mL)
Give bare numbers, in ng·h/mL.

Any idea what AUC was measured for C=CC(=O)Nc1cc(N2CCN(CC)CC2)ccc1Nc1cc(N(C)C(=O)Nc2c(Cl)c(OC)cc(OC)c2Cl)ncn1 ?
5450

* * *

test: Pharmacokinetic measurements of H3B-6527 capsules in patients (trial NCT02834780), plasma LC-MS/MS; type: in vivo, human; conditions: human, plasma, oral, 1000 mg, 1000 mg QD, fasted, Day 8; Table 6, actual times after QC; read-out: AUC, geometric mean (CV%)
measure: AUC

Suppose we examine the molecule C=CC(=O)Nc1cc(N2CCN(CC)CC2)ccc1Nc1cc(N(C)C(=O)Nc2c(Cl)c(OC)cc(OC)c2Cl)ncn1 [H3B-6527] ; what AUC value has been reported?
839 ng·h/mL

From: patent US20230172867A1
